Conditions: 303.15 K; 101 kPa; Liquid
Note to self: use yes only for viscosity readings below 6 mPa·s; a reading exactly at 6 mPa·s still gets no.

# compound_string, assigned_class
rows = [
    ("CCCCCCCCCCO", "no"),
    ("CCCCCCCCO", "no"),
    ("CCCCCCO", "yes"),
    ("BrC(Br)C(Br)Br", "no"),
    ("CCCCCO", "yes"),
    ("CCCCCCCO", "yes"),
]

###

Assay: refractive index (Na D-line) (dimensionless)
Conditions: 293.15 K; 101.33 kPa; Liquid; Standard Abbe refractometry
Numbers after ± are expanded uncertainties.
Each record here notes measured refractive index.
endpoint_name: refractive index

# compound_string, endpoint_name, data_value
measured = [
    ("CCCCCCCO", "refractive index", "1.42397 ± 0.00075"),
    ("CCCCCCO", "refractive index", "1.41826 ± 0.00075"),
    ("CCCCCCCCCCO", "refractive index", "1.43706 ± 0.00075"),
    ("CCCCCO", "refractive index", "1.40995 ± 0.00075"),
    ("BrC(Br)C(Br)Br", "refractive index", "1.63535 ± 0.00075"),
    ("CCCCCCCCO", "refractive index", "1.42958 ± 0.00075"),
]

###

Entries and their measured mass density follow.
Settings: 303.15 K; 101 kPa; Liquid

# compound_string, mass density / kg/m3
measured = [
    ("CCCCCCCCCCO", 822.85),
    ("CCCCCCCCO", 818.09),
    ("CCCCCCO", 811.73),
    ("CCCCCCCO", 815.41),
    ("CCCCCO", 807.6),
    ("BrC(Br)C(Br)Br", 2939.86),
]

###

Conditions: 293.15 K; 101 kPa; Liquid

# compound_string, viscosity [mPa·s]
measured = [
    ("CCCCCCCCCCO", 14.54),
    ("CCCCCCO", 5.37),
    ("CCCCCCCO", 7.058),
    ("BrC(Br)C(Br)Br", 10.94),
    ("CCCCCO", 4.052),
    ("CCCCCCCCO", 9.219),
]

###

Each entry below lists one item and its recorded mass density value.
Settings: 293.15 K; 101 kPa; Liquid

# compound_string, mass density [kg/m3]
records = [
    ("CCCCCCCCCCO", 829.7),
    ("CCCCCO", 815.03),
    ("BrC(Br)C(Br)Br", 2963.2),
    ("CCCCCCCCO", 824.99),
    ("CCCCCCO", 818.92),
    ("CCCCCCCO", 822.39),
]
